Assign Ratio to each entry below.
target: Monoamine oxidase (Rattus norvegicus, UniProt P19643+P21396); assay: Ratio of Kinetic constants (Km vs. Vmax).; format: protein assay
Lab note: record just the number, no unit beside it.

IN: Query (molecule): CN1CC=C(Cc2ccc(Cl)cc2)CC1 ; field requested: Ratio
OUT: 5.15

IN: Also, COc1ccc(CC2=CCN(C)CC2)cc1 please.
OUT: 7.87

IN: Next: CC(C1=CCN(C)CC1)c1ccccc1 (stereo not given)
OUT: 1.26

IN: Can you handle CN1CC=C(Cc2ccc(I)cc2)CC1 next?
OUT: 2.38

IN: Here is the next molecule: Cc1ccccc1CC1=CCN(C)CC1
OUT: 3.71

IN: Let us now turn to Cc1ccc(CC2=CCN(C)CC2)cc1
OUT: 5.17

IN: Same again, this time with CN1CC=C(CCc2ccccc2)CC1
OUT: 3.74

IN: Param item: CN1CC=C(Cc2cccs2)CC1
OUT: 9.86

IN: Same question for Cc1cccc(CC2=CCN(C)CC2)c1 please.
OUT: 6.95

IN: Would you kindly repeat that for CN1CC=C(Cc2ccc(O)cc2)CC1 ?
OUT: 0.38

IN: Same thing, different molecule: CN1CC=C(Cc2ccccc2)CC1
OUT: 9.36

IN: What do we get for CN1CC=C(/C=C/c2cccc(Br)c2)CC1 ?
OUT: 0.565

IN: Also CN1CC=C(CCc2cccc(Cl)c2)CC1 , if possible.
OUT: 4.44

IN: Same for CN1CC=C(C(Oc2ccc(Br)cc2)c2ccccc2)CC1 (stereo not given)
OUT: 0.74

IN: Next molecule up: CN1CC=C(Cc2cccc3ccccc23)CC1
OUT: 5.03
